Tested on: pseudotyped VSV G particles (VSVpp)
Protocol: microbe, parasite or virus in culture
Format: cell-based
Measurement Conditions: Vesicular stomatitis virus, 72 h, read-out: VSVpp (EC50, μM)
Criterion: EC50 strictly less than 10 µM. Met: 1. Not met: -1.

molecule="COc1ccc(S(=O)(=O)c2c(Cl)cc(Nc3n[nH]c(N)n3)cc2Cl)cc1 [Compound 18]" label_value=1
molecule="Nc1nc(Nc2cc(Cl)c(Sc3cccc(C(F)(F)F)c3)c(Cl)c2)n[nH]1 [Compound 9]" label_value=1
molecule="Nc1nc(Nc2cc(Cl)cc(OCc3ccccc3)c2)n[nH]1 [Compound 21]" label_value=-1
molecule="COc1ccc(Sc2c(Cl)cc(Nc3n[nH]c(N)n3)cc2C(F)(F)F)cc1 [Compound 17]" label_value=-1
molecule="Nc1nc(Nc2cc(Cl)cc(Oc3ccccc3)c2)n[nH]1 [Compound 25]" label_value=-1
molecule="Nc1nc(Nc2cc(Cl)c(Sc3ccccc3)c(Cl)c2)n[nH]1 [Compound 4]" label_value=1

====

EC50 listing for selected compounds.
System: pseudotyped VSV G particles (VSVpp)
Protocol: microbe, parasite or virus in culture
Format: cell-based
Measurement Conditions: Vesicular stomatitis virus, 72 h, read-out: VSVpp (EC50, μM)
Observation Type: EC50 (µM)

compound="Nc1nc(Nc2cc(Cl)c(Oc3ccccn3)c(Cl)c2)n[nH]1 [Compound 26]" test_result=43.5
compound="CS(=O)(=O)c1ccc(Oc2c(Cl)cc(Nc3n[nH]c(N)n3)cc2Cl)cc1 [Compound 19]" test_result=20.2
compound="Nc1nc(Nc2ccc(S(=O)(=O)c3ccccc3)c(Cl)c2)n[nH]1 [Compound 23]" test_result=40.1
compound="Nc1n[nH]c(Nc2cc(F)c(Sc3ccccc3)c(C(F)(F)F)c2)n1 [Compound 1]" test_result=13.2
compound="Nc1nc(Nc2ccc(Nc3ccccc3)c(Cl)c2)n[nH]1 [Compound 2]" test_result=86

====

EC50 listing for selected compounds.
Tested on: Pseudotyped HCV GT1b particles (HCVpp)
Protocol: microbe, parasite or virus in culture
Assay type: cell-based, Hepatitis C virus GT1b Con1 strain
Measurement Conditions: Hepatitis C virus, 72 h, read-out: HCVpp GT-1b (EC50, μM)
Observation Type: EC50 (µM)

compound="Nc1nc(Nc2ccc(Nc3ccccc3)c(Cl)c2)n[nH]1 [Compound 2]" observation_type=EC50 test_result=0.393
compound="Nc1nc(Nc2ccc(S(=O)(=O)c3ccccc3)c(Cl)c2)n[nH]1 [Compound 23]" observation_type=EC50 test_result=0.517
compound="Nc1nc(Nc2ccc(Oc3ccccc3)c(Cl)c2)n[nH]1 [Compound 3]" observation_type=EC50 test_result=0.329
compound="Nc1nc(Nc2cc(Cl)c([S+]([O-])c3ccc(C(F)(F)F)cc3)c(Cl)c2)n[nH]1 (stereo not drawn) [Compound 8]" observation_type=EC50 test_result=0.079
compound="CN(c1ccc(Sc2ccccc2)c(Cl)c1)c1n[nH]c(N)n1 [Compound 24]" observation_type=EC50 test_result=42.1
compound="CS(=O)(=O)c1ccc(Oc2c(Cl)cc(Nc3n[nH]c(N)n3)cc2Cl)cc1 [Compound 19]" observation_type=EC50 test_result=0.008
compound="Nc1nc(Nc2cc(Cl)c(Sc3ccc(C(F)(F)F)cc3)c(Cl)c2)n[nH]1 [Compound 7]" observation_type=EC50 test_result=0.009
compound="Nc1nc(Nc2cc(Cl)cc(Oc3ccccc3)c2)n[nH]1 [Compound 25]" observation_type=EC50 test_result=1.9
compound="Nc1nc(Nc2ccc(Sc3ccccc3)c(Cl)c2)n[nH]1 [Compound 22]" observation_type=EC50 test_result=0.229
